test summary: Human HepG2 cell viability assay in 384 well format
Assay type: toxicity, cell-based
Parameters: dose 125 nL, time 70.5 hour; concentration not given beside the values
measurement conditions: HepG2 cells, read-out: Inhibition
assay readout: cytotoxicity at 70.5 h (%)

> print(dat)
                                    compound  value.observed
 1    Cc1ccc(NC(=O)c2n[nH]c(-n3cnnc3)n2)cc1C            28.4
 2  CCn1cc(NC(=O)NCC(O)CN2CCc3ccccc3C2)cn1 (stereo unspecified)            11.8
 3  Cc1cc(C)n(CC2CCCN2C(=O)c2cc[nH]n2)n1 (stereo unspecified)            -1.3
 4  O=C(Nc1ccc(F)cc1)N1CCC(CO)(Nc2ccccc2)CC1           0.526
 5  CN(C)CCN(C)C1CCN(C(C(=O)O)c2ccc(F)c(Cl)c2)CC1 (stereo unspecified)            5.36
 6  CN(C)C(=O)C1CCCN1C(=O)c1ccc(Cn2ccnc2)o1 (stereo unspecified)            10.3
 7  CNc1nc(CNC(=O)Nc2cccc(-n3ccc(C)n3)c2)cs1           0.812
 8         CCCNC(=O)c1cc(C(C)C)nc(N2CCCC2)n1           -8.39
 9   CC(=O)NCC(=O)N1CCN(Cc2ccncc2)c2ncccc2C1            16.8
10  CCCc1nc(C)cc(N2CCC3(CCC(=O)N(C4CC4)C3)CC2)n1            -5.2
11  Cc1cc2n(n1)CC(CNCc1cnn(-c3ccccc3)c1)CN2 (stereo unspecified)           -3.87

---

test summary: Human HepG2 cell viability assay in 384 well format
Format: toxicity, cell-based
Parameters: dose 125 nL, time 70.5 hour; concentration not given beside the values
measurement conditions: HepG2 cells, read-out: Inhibition
Here the recorded cytotoxicity at 70.5 h is given for each entry.
assay readout: cytotoxicity at 70.5 h (%)

> print(dat)
                                    molecule  value.observed
 1            COc1nn(C)cc1C(=O)NCC1(O)CCOCC1           -3.26
 2  O=C(NCC1CCS(=O)(=O)C1)N(Cc1ccncc1)C1CC1 (configuration not stated)           -6.32
 3  Cc1cccc(C(=O)N2C[C@H](NS(C)(=O)=O)[C@@H]3OCCC[C@@H]32)n1           -10.2
 4  Cc1cc(C(O)CCNC(=O)COc2ccccc2C)c(C)o1 (configuration not stated)           -2.27
 5           CC(C)NC(=O)c1cc(Br)c2c(c1)OCCO2           -6.96
 6   COc1ccccc1N1CCN(C(=O)CCn2ccnc2C)CC1(C)C            21.5
 7  Cc1nccn1-c1nccnc1C1CCCN(C)C1 (configuration not stated)           -4.67
 8  COc1ccc(CCN2CCCC(CN(C)Cc3[nH]cnc3C)C2)cc1 (configuration not stated)            1.62
 9  Cc1cnc(C(=O)N2CCCC(c3nccn3Cc3cscn3)C2)cn1 (configuration not stated)           -3.23
10  CN1C(=O)[C@H]2CC[C@@H]1CN(Cc1cccc(OCc3ccccn3)c1)C2           -11.5
11        CC(C)OCCN1CCN(c2ccc(CN(C)C)cn2)CC1            8.47
12  CSc1ccc(Cl)c(C(=O)N2CCCC(CNS(C)(=O)=O)C2)c1 (configuration not stated)            17.2
13  CC(C(=O)NCc1ccc(N2CCCCC2)nc1)n1cncn1 (configuration not stated)           -3.82
14  CC(C)(C)c1cc(CN2C[C@@H]3CC[C@H](C2)N(Cc2ccccn2)C3)n[nH]1           -9.78
15          NC(=O)CCn1ccc(NCc2cc(F)ccc2Br)n1           -10.5
16  O=C(N1CCOCC1)N1C(CN2CCOCC2)[C@]2(O)CC[C@H]1CC2 (some centres not stated)            3.03
17  CC(NC(=O)NCc1ccccc1)(C(=O)O)c1ccco1 (configuration not stated)           -9.81
18  CCOCC(O)CN1CCN(C(=O)c2ccnc(N(C)C)c2)CC1 (configuration not stated)            -6.8
19      COc1ccccc1-c1nc(C(=O)N(C)C)n2ccncc12           -8.75
20  Cc1cccc(N2CCN(CCC(=O)NCc3nnc[nH]3)CC2)c1           -1.67
21  CC(=O)c1cc(CN2C[C@H]3CC[C@@H]2CN(S(=O)(=O)N(C)C)C3)cs1            12.5
22        COCc1ccc(CNC(=O)CN2CCc3ccccc32)cc1            1.24
23  CNC(=O)C1CCCN(C(=O)c2cncs2)C1 (configuration not stated)           -9.62
24  CCOC1COC2(CCN(S(=O)(=O)c3cccc(C)c3)CC2)C1 (configuration not stated)           -6.02
25    Cc1nc(C)c(CC(=O)Nc2ncc(C)s2)c(=O)[nH]1           -1.19
26  CCOC(C)c1nc(Cn2cc(C)cn2)cs1 (configuration not stated)            9.54
27  Cc1nccc(N2CCN(C3CCOCC3)CC(C(=O)N(C)C)C2)n1 (configuration not stated)           -13.5
28  CC(=O)c1cc(CC(=O)N2CCCC2c2nc(C(C)C)no2)cs1 (configuration not stated)           -3.24
29   Cc1nc(COC[C@@H]2CCC[C@@]23CN(C)CCO3)cs1            4.91
30            CCc1nnc2ccc(NCC3(O)CCOCC3)nn12           -7.18
31            Cc1nc(CNc2nc3c(s2)c(C)nn3C)cs1           -8.75
32  C=C(C)COc1cccc(C(=O)N2CCC(O)(c3ccccc3)CC2)c1            7.64
33  CC(C)(C)c1ncc2c(n1)CN(C(=O)c1ccc3[nH]cnc3c1)C2           -3.17
34  CCn1ccc(C(=O)N2CCOC(c3nc(-c4cccs4)no3)C2)n1 (configuration not stated)           -4.33
35  CCCc1nc(C)c(C(=O)NCC2CCN(C3CC3)C2)s1 (configuration not stated)            23.6
36     CC(=O)N[C@@H]1CN(C(=O)CC2CC2)C[C@H]1O           -4.46
37  CC(CNC(=O)c1c[nH]nn1)Oc1ccc(Cl)cc1 (configuration not stated)           -22.2
38  COCCN1CC2(CCCN(C(=O)CCCc3cccs3)C2)CCC1=O (configuration not stated)            9.49
39  CCOCCCC(=O)N1CCN(c2cccc(OC)c2)C(C)C1 (configuration not stated)            12.3
40  COc1ccc(C(=O)N2CCOCC2c2[nH]ncc2C)cc1F (configuration not stated)            -3.4
41  Cc1ccccc1C(CC(=O)NCc1n[nH]c(N)n1)c1ccccc1 (configuration not stated)           -4.71
42            CN1CCC2(CCN(CC3CCOCC3)CC2)C1=O           -10.4
43  OC(CNCCn1cccn1)COc1ccc2ccccc2c1 (configuration not stated)          -0.315
44        CCNc1ncc2c(n1)CN(c1ccc(Cl)cc1)C2=O           -14.1
45  CCS(=O)(=O)c1ncc(CN(C)Cc2cccc(OC)c2)n1CCOC           -6.87
46          Cc1nccn1CCN1C(=O)CC2(CCCC2)CC1=O              -9
47  CS(=O)(=O)c1ccc(CN2C[C@@H]3OCC(=O)N(CC(N)=O)[C@@H]3C2)cc1           -4.08
